- STUDY_TARGET: rat intestine derived lipase
- RUN_DESCRIPTION: Lipase inhibitory action test (Lipase kit S)
- EXPERIMENTAL_CONTEXT: 30° C., 10 minutes reaction
MEASURED_PARAMETER: IC50

Some molecules with recorded IC50:
COc1cc(C(C)/C=C/c2ccc(O)cc2)ccc1O (single isomer, unassigned) | 350 µM
O=C(O)/C=C/c1ccc(O)c(O)c1 [Coffeic acid, reference compound] | > 1000 µM
O=C(O)/C=C/c1ccc(O)cc1 [p-coumaric acid, reference compound] | > 1000 µM

Briefly, IC50 measured for COc1cc(/C=C/C(=O)O)ccc1O [Ferulic acid, reference compound] : > 1000 µM
